Parameter: Hepatic extraction ratio EH Human. Scope: all listed entries.
Test: Metabolic stability in pooled human liver microsomes
Details: human liver microsomes
Please reply with the number alone, leaving off any unit.

CO[C@H]1O[C@@H]2O[C@@]3(C)CC[C@H]4[C@H](C)CC[C@@H]([C@H]1C)[C@@]24OO3 [Artemether 3, artemether] :: 0.9
C[C@H]1[C@H](N2CCSCC2)O[C@@H]2O[C@@]3(C)CC[C@H]4[C@H](C)CC[C@@H]1[C@@]24OO3 [Artemiside 5, artemiside] :: 1.0
C[C@H]1[C@H](N2CCN(C(=O)Nc3ccc(F)cc3)CC2)O[C@@H]2O[C@@]3(C)CC[C@H]4[C@H](C)CC[C@@H]1[C@@]24OO3 [Arylurea 10] :: 0.6
C[C@H]1[C@H](N2CCS(=O)(=O)CC2)O[C@@H]2O[C@@]3(C)CC[C@H]4[C@H](C)CC[C@@H]1[C@@]24OO3 [Artemisone 6, artemisone] :: 0.9

Ask: Param item = C[C@H]1[C@@H](O)O[C@@H]2O[C@@]3(C)CC[C@H]4[C@H](C)CC[C@@H]1[C@@]24OO3 [DHA 2, dihydroartemisinin] ; retrieve measured Hepatic extraction ratio EH Human.
Reply: 0.7

Ask: Param item = C[C@H]1[C@H](NS(N)(=O)=O)O[C@@H]2O[C@@]3(C)CC[C@H]4[C@H](C)CC[C@@H]1[C@@]24OO3 [Sulfamide 7] ; retrieve measured Hepatic extraction ratio EH Human.
Reply: 0.2

---

Assay: Pharmacokinetics in mice, oral administration
Assay type: in vivo, male C57/BL6 mice
Settings: male, C57/BL6, mouse, plasma, po; p.o. 50 mg/kg, parent
Method: (i) Animals. Healthy male C57/BL6 mice each weighing approximately 25 g were used. […] Humidity was monitored and ranged between 55 and 70%. […] (ii) Oral drug administration. […] Dosing volumes were calculated based on the weight of each mouse in the respective group. […] LC-MS/MS analysis. […] The arylurea 10 was analyzed using a Phenomenex Gemini NX-C18 (5 μm, 2.1 mm by 50 mm) column with an AB Sciex 3200 QTRAP mass spectrometer operated at unit resolution in the MRM mode. […]
observed.property: log10 Cmax (log10 of the value in nM)
All values: log10 Cmax [nM].

These recorded examples may help you get a feel for the data.
C[C@@H]1CC[C@H]2[C@@H](C)C(=O)N[C@@H]3O[C@@]4(C)CC[C@@H]1[C@]32OO4 :: 3.41
C[C@H]1[C@H](NS(N)(=O)=O)O[C@@H]2O[C@@]3(C)CC[C@H]4[C@H](C)CC[C@@H]1[C@@]24OO3 [Sulfamide 7] :: 4.34
C[C@H]1[C@H](N2CCSCC2)O[C@@H]2O[C@@]3(C)CC[C@H]4[C@H](C)CC[C@@H]1[C@@]24OO3 [Artemiside 5, artemiside] :: 2.00
CO[C@H]1O[C@@H]2O[C@@]3(C)CC[C@H]4[C@H](C)CC[C@@H]([C@H]1C)[C@@]24OO3 :: 2.78
C[C@H]1[C@H](N2CCS(=O)(=O)CC2)O[C@@H]2O[C@@]3(C)CC[C@H]4[C@H](C)CC[C@@H]1[C@@]24OO3 :: 3.90

Now for the compound whose log10 Cmax we want.
Ask: Param item = `C[C@H]1[C@H](N2CCN(C(=O)Nc3ccc(F)cc3)CC2)O[C@@H]2O[C@@]3(C)CC[C@H]4[C@H](C)CC[C@@H]1[C@@]24OO3` ; retrieve measured log10 Cmax.
Reply: 3.36
